Test system: A2780
procedure.summary: Antiproliferative activity against human A2780 cells assessed as cell growth inhibition after 72 hrs by MTT assay
Format: functional
stated.conditions: A2780, 72 h
Measured GI50 by item

Solved cases below.
CCCS(=O)(=O)Nc1cc(CS(=O)(=O)/C=C/c2c(OC)cc(OC)cc2OC)cnc1OC; > 10 µM
COc1cc(OC)c(/C=C/S(=O)(=O)Cc2cnc(OC)c(N)c2)c(OC)c1; 0.005 µM

Input line: What value of GI50 has been recorded for this entry: `CCS(=O)(=O)Nc1cc(CS(=O)(=O)/C=C/c2c(OC)cc(OC)cc2OC)cnc1OC`
Output line: > 10 µM

----------
System: MCF7
procedure.summary: Antiproliferative activity against human MCF7 cells assessed as cell growth inhibition after 72 hrs by MTT assay
Assay type: functional
stated.conditions: MCF7, 72 h
assay.readout: GI50 (nM)

Solved cases below.
COc1cc(OC)c(/C=C/S(=O)(=O)Cc2cnc(OC)c(NS(C)(=O)=O)c2)c(OC)c1; 780
CCOC(=O)CNc1nc(CS(=O)(=O)/C=C/c2c(OC)cc(OC)cc2OC)ccc1OC; 5710
COc1cc(OC)c(/C=C/S(=O)(=O)Cc2cnc(OC)c(N)c2)c(OC)c1; 6
COc1cc(OC)c(/C=C/S(=O)(=O)Cc2ccc(OC)c(NCC(=O)O)c2)c(OC)c1 [RIGOSERTIB]; 50
COc1cc(OC)c(/C=C/S(=O)(=O)Cc2ccc(OC)c(NCC(=O)O)n2)c(OC)c1; 545

I: COc1cc(OC)c(/C=C/S(=O)(=O)Cc2cnc(OC)c(NC(C)=O)c2)c(OC)c1
II: COc1cc(OC)c(/C=C/S(=O)(=O)Cc2ccc(OC)c(NS(C)(=O)=O)n2)c(OC)c1
Input line: Between I and II , which one shows the smaller GI50 number? Respond with the label that goes with your answer.
Output line: II
(II: 468 nM, I: 7500 nM)

----------
Measured GI50 by item
System: MCF7
procedure.summary: Antiproliferative activity against human MCF7 cells assessed as cell growth inhibition after 72 hrs by MTT assay
Type: functional
stated.conditions: MCF7, 72 h

Solved cases below.
CCN(C(C)=O)c1cc(CS(=O)(=O)/C=C/c2c(OC)cc(OC)cc2OC)cnc1OC; > 10 µM
COc1cc(OC)c(/C=C/S(=O)(=O)Cc2cnc(OC)c(NCC(N)=O)c2)c(OC)c1; > 10 µM
CCS(=O)(=O)Nc1cc(CS(=O)(=O)/C=C/c2c(OC)cc(OC)cc2OC)cnc1OC; > 10 µM
COc1cc(OC)c(/C=C/S(=O)(=O)Cc2ccc(OC)c([N+](=O)[O-])n2)c(OC)c1; 9.97 µM
COc1cc(OC)c(/C=C/S(=O)(=O)Cc2ccc(OC)c(N)n2)c(OC)c1; 0.006 µM

Here's the next entry for you.
Input line: What value of GI50 has been recorded for this entry: `CCCS(=O)(=O)Nc1cc(CS(=O)(=O)/C=C/c2c(OC)cc(OC)cc2OC)cnc1OC`
Output line: > 10 µM
